# ASSAY SYSTEM: E. coli DNA gyrase (Escherichia coli (strain K12), UniProt P0AES4+P0AES6)
# TEST: biochemical
# Assay type: biochemical
# PARTICULARS: IC50 (≤15 µM) IC50, Table 2
REPORTED METRIC: pIC50
Please express pIC50 as -log10 of the molar concentration.

[ask] What does the data say about its pIC50? Entry: O=C(O)CCCN1C(=O)C(=Cc2ccc(-c3nc4ccccc4s3)o2)SC1=S (single isomer, unassigned)
[reply] 5.83

###

# ASSAY SYSTEM: E. coli DNA topoisomerase IV (Escherichia coli (strain K12), UniProt P0AFI2+P20083)
# Sequence (P0AFI2 whole entry, looked up): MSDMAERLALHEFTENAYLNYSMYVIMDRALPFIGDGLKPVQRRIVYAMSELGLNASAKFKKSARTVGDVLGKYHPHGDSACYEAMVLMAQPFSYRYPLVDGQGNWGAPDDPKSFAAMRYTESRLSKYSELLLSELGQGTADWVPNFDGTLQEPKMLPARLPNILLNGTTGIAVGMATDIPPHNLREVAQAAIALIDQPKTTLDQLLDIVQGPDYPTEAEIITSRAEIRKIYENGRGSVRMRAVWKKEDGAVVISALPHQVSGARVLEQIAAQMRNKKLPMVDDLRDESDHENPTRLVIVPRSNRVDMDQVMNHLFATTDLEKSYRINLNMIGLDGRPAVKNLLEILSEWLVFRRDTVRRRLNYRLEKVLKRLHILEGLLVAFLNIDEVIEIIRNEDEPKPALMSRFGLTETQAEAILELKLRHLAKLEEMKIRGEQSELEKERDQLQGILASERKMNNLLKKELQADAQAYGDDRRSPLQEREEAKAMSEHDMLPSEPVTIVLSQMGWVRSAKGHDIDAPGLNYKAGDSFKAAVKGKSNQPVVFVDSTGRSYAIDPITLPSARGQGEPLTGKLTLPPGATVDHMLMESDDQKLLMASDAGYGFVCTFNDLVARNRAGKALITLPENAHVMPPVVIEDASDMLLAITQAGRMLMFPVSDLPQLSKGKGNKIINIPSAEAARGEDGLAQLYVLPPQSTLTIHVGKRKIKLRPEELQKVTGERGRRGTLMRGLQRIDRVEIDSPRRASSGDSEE
# Sequence (P20083 whole entry, looked up): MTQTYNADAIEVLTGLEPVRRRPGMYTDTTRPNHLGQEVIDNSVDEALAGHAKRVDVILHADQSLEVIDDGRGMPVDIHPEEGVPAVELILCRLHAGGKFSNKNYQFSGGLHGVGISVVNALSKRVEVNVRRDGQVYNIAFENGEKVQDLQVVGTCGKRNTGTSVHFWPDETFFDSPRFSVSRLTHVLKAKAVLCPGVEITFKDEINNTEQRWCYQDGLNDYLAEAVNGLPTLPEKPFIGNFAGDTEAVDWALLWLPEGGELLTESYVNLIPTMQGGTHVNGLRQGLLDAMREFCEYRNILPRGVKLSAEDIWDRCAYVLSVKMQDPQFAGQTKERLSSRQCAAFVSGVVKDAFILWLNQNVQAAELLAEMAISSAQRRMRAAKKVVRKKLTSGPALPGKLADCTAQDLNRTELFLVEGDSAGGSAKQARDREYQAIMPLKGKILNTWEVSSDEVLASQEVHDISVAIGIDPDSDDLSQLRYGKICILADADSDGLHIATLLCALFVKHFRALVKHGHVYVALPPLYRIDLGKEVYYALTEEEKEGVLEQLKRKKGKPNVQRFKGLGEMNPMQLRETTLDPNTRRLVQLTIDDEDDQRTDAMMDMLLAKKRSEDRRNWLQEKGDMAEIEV
# TEST: E. coli DNA topoisomerase IV relaxation assay (gel-based)
# Type: biochemical
REPORTED METRIC: inhibition of E. coli DNA topoisomerase IV

CNC(=O)[C@H]1O[C@@H](n2cnc3c(NCc4cccc(I)c4)nc(Cl)nc32)[C@H](O)[C@@H]1O [chloro-IB-MECA, reference compound] | did not inhibit
CNC(=O)[C@H]1O[C@@H](n2cnc3c(NCc4cccc(I)c4)ncnc32)[C@H](O)[C@@H]1O [IB-MECA, reference compound] | did not inhibit
CCCCCCCCCCCCOC(=O)c1cc(O)c(O)c(O)c1 [Dodecyl gallate, dodecyl gallate] | strongly inhibit
CCCCCCCCOC(=O)c1cc(O)c(O)c(O)c1 [Octyl gallate, octyl gallate] | strongly inhibit

[ask] What does the data say about its inhibition of E. coli DNA topoisomerase IV? Entry: CNC(=O)[C@H]1O[C@@H](n2cnc3c(NCc4ccc(N)cc4)ncnc32)[C@H](O)[C@@H]1O [AB-MECA, reference compound]
[reply] did not inhibit
